# Protocol Description: Quantitative High-Throughput drug screen in 47 multiple myeloma cell lines against the NCATS MIPE library collection: Karpas620_DSMZ cell viability assay (AID 1918959); further: nearly all actives have a fitted effect of over 30% in size
# Settings: Karpas620 myeloma viability, CellTiter-Glo ATP luminescence, 48 h; series mostly up to 45.8 µM
Records with an inconclusive call do not appear. Activity calls are given as the source filed them. The call rests on the fitted dose curve; in most records, active means well fitted cell-killing curve with a large enough effect; inconclusive means small, poorly fitted or top-dose-only effect, or effect the other way; inactive means no such curve, though single readings can be large or run the other way.
Entry note: the call must match one of True for active, False for inactive

Query: Could you please tell me the result logged for O=C(Nc1cc2cc[nH]c2cn1)c1ccccc1 in this assay?
Reply: True

Query: Could you please tell me the result logged for OCCNC1CCCc2c1[nH]c1ccc(-c3ccccc3)cc21 (centres undefined) in this assay?
Reply: True

Query: Could you please tell me the result logged for CC(C)(O)CC[C@@H](O)[C@](C)(O)[C@H]1CC[C@@]2(O)C3=CC(=O)[C@@H]4C[C@@H](O)[C@@H](O)C[C@]4(C)[C@@H]3CC[C@]12C in this assay?
Reply: False

Query: Could you please tell me the result logged for CCCCCCCCCCCCc1ccc(S(=O)(=O)Nc2nncs2)cc1 in this assay?
Reply: False

Query: Could you please tell me the result logged for CC(=O)ON=C1C(c2c(O)[nH]c3cc(Br)ccc23)=Nc2ccccc21 in this assay?
Reply: True

Query: Could you please tell me the result logged for COC(=O)[C@@H]1CC2=CC(=O)CC[C@]2(C)[C@@]23O[C@@H]2C[C@@]2(C)[C@H](CC[C@@]24CCC(=O)O4)[C@@H]13 in this assay?
Reply: False

Query: Could you please tell me the result logged for C=C(C)[C@@H]1CC[C@]2(C)CC[C@]3(C)[C@H](CC[C@@H]4[C@@]5(C)CC[C@H](O)C(C)(C)[C@H]5CC[C@]43C)[C@@H]12 in this assay?
Reply: False

Query: Could you please tell me the result logged for Cn1cnc(=N)c2[nH]cnc21 in this assay?
Reply: True

Query: Could you please tell me the result logged for COc1ccc([C@@H]2CNC(=O)C2)cc1OC1CCCC1 in this assay?
Reply: False

* * *

# Protocol Description: qHTS of pediatric cancer cell lines to identify multiple opportunities for drug repurposing: Primary screen for LAN-5 cells (AID 1347100)
# Settings: LAN-5 neuroblastoma viability, CellTiter-Glo luminescence, 48 h; series mostly up to 46 µM
# Protocol: Drug repurposing or repositioning has been offered as a strategy for drug development in oncology programs. […] [1] Shen, M et al. Quantitative high-throughput phenotypic screening of pediatric cancer cell lines identifies multiple opportunities for drug repurposing. […] Cells were assayed in growth media at a density of 500-1,000 cells/well. […] After a 15 min incubation at room temperature, samples were analyzed for luminescence intensity using a ViewLux High-throughput CCD imager equipped with clear filters.
Results filed as inconclusive are left out. Activity calls are given as the source filed them. The call rests on the fitted dose curve; in most records, active means well fitted cell-killing curve with a large enough effect; inconclusive means small, poorly fitted or top-dose-only effect; inactive means no such curve, though single readings can be large or run the other way.
Entry note: the call must match one of True = active, False = inactive

Query: Could you please tell me the result logged for CCCCCCCCc1ccc(CCC(N)(CO)CO)cc1 in this assay?
Reply: True

Query: Could you please tell me the result logged for CC(C)(O)[C@H]1CC[C@@](C)([C@H]2[C@@H](O)C[C@@]3(C)[C@@H]4C[C@H](O[C@@H]5O[C@H](CO)[C@@H](O)[C@H](O)[C@@H]5O)[C@H]5C(C)(C)[C@@H](O[C@@H]6OC[C@@H](O)[C@H](O)[C@@H]6O)CC[C@@]56C[C@@]46CC[C@]23C)O1 in this assay?
Reply: False

Query: Could you please tell me the result logged for O=C1NC(=O)C(=Cc2ccc3nccc(-c4ccncc4)c3c2)S1 in this assay?
Reply: True
